TARGET OF ASSAY: ~100 representative kinases (Homo sapiens, UniProt Q8TDX7)
Construct: Recombinant protein kinase domains with a concentration of 2 μM
Sequence (Q8TDX7 whole entry, the tested form may be a part): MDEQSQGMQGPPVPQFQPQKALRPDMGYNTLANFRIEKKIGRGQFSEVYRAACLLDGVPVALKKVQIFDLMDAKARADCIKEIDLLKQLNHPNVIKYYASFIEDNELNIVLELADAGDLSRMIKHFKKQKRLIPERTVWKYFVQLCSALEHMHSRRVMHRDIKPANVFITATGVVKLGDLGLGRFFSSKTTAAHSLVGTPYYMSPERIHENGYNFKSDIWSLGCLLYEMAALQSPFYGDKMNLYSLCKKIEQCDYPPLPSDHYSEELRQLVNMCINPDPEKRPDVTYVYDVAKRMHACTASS
ASSAY: DSF 100 kinase selectivity screen;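 further: compound tested at 20 µM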
Type: binding
RECORDED CONDITIONS: protein NEK7; average of three replicates
Threshold -0.08 K: dTm strictly smaller gives condition met, otherwise condition not met.

O=C(Nc1ccc(Cl)cc1)C1(C(=O)Nc2cccc(-c3c[nH]c4ncnc(N5CCOCC5)c34)c2)CC1 : condition not met
CC(=O)N1CCN(c2nc(Cl)nc3[nH]cc(-c4cccc(NC(=O)Nc5cc(C(C)(C)C)nn5-c5ccc(C)cc5)c4)c23)CC1 : condition met
O=C(Nc1cccc(-c2c[nH]c3ncnc(N4CCOCC4)c23)c1)C1(C(=O)Nc2ccc(F)c(Cl)c2)CC1 : condition not met
Cc1ccc(NC(=O)C2(C(=O)Nc3cccc(-c4c[nH]c5ncnc(N6CCOCC6)c45)c3)CC2)cc1 : condition met
CC(C)(C)c1cccc(NC(=O)C2(C(=O)Nc3cccc(-c4c[nH]c5ncnc(N6CCOCC6)c45)c3)CC2)c1 : condition not met

(Q) Given Cc1ccc(-n2nc(C(C)(C)C)cc2NC(=O)Nc2cccc(-c3c[nH]c4ncnc(N5CCOCC5)c34)c2)cc1 , is recorded dTm strictly lower than -0.08 K?
(A) condition met

----------
System: ~100 representative kinases
ASSAY: DSF 100 kinase selectivity screen;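 further: compound tested at 20 µM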
Assay type: binding
RECORDED CONDITIONS: Protein BRD; average of three replicates
Answer each item with its documented dTm.
Numbers only, in K.

O=C(Nc1ccc(Cl)cc1)C1(C(=O)Nc2cccc(-c3c[nH]c4ncnc(N5CCOCC5)c34)c2)CC1 : 1.19
CC(C)(C)c1cccc(NC(=O)C2(C(=O)Nc3cccc(-c4c[nH]c5ncnc(N6CCOCC6)c45)c3)CC2)c1 : 1.52
O=C(Nc1ccccc1)C1(C(=O)Nc2cccc(-c3c[nH]c4ncnc(N5CCOCC5)c34)c2)CC1 : -0.35
Cn1cc(-c2c[nH]c3ncnc(N4CCOCC4)c23)cc1C#N : -0.51
O=C(Nc1cccc(-c2c[nH]c3ncnc(N4CCOCC4)c23)c1)C1(C(=O)Nc2cccc3c2CCC3)CC1 : 1.00
Cc1ccc(C(=O)Nc2ccc(CN3CCN(C)CC3)c(C(F)(F)F)c2)cc1C#Cc1cnc2[nH]ncc2c1 [GZD-824, reference compound] : -0.37

Recorded dTm (molecule O=C(Nc1cccc(-c2c[nH]c3ncnc(N4CCOCC4)c23)c1)C1(C(=O)Nc2ccc(F)c(Br)c2)CC1 ): 1.82

----------
For each entry below, report its dTm value.
TARGET OF ASSAY: ~100 representative kinases (Homo sapiens)
Construct: Recombinant protein kinase domains with a concentration of 2 μM
ASSAY: DSF 100 kinase selectivity screen;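 further: compound tested at 20 µM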
Assay type: binding
RECORDED CONDITIONS: Protein DAPK3; average of three replicates
Answers are plain numbers, in K.

Record excerpt, results attached:
Cc1cc(NC(=O)C2(C(=O)Nc3ccc(F)cc3)CC2)cc(-c2c[nH]c3ncnc(N4CCOCC4)c23)c1 [Compound 6] : 3.25
O=C(Nc1cccc(-c2c[nH]c3ncnc(N4CCOCC4)c23)c1)C1(C(=O)Nc2cc(Br)c(F)cc2F)CC1 [Compound 25] : 3.02
COc1cc(NC(=O)C2(C(=O)Nc3cccc(-c4c[nH]c5ncnc(N6CCOCC6)c45)c3)CC2)ccc1F [Compound 21] : 7.62
Cc1ccc(-n2nc(C(C)(C)C)cc2NC(=O)Nc2cccc(-c3c[nH]c4nc(Cl)nc(N5CCOCC5)c34)c2)cc1 [Compound 30] : 6.34
CC(C)(C)c1cccc(NC(=O)C2(C(=O)Nc3cccc(-c4c[nH]c5ncnc(N6CCOCC6)c45)c3)CC2)c1 [Compound 22] : 3.52
O=C(Nc1cccc(-c2c[nH]c3ncnc(N4CCOCC4)c23)c1)C1(C(=O)Nc2ccc(F)c(F)c2)CC1 [Compound 17] : 8.69

Would you be so kind as to report dTm for each listed record?
1. CC(=O)N1CCN(c2nc(Cl)nc3[nH]cc(-c4cccc(NC(=O)Nc5cc(C(C)(C)C)nn5-c5ccc(C)cc5)c4)c23)CC1 [Compound 31]
2. O=C(Nc1ccc(F)cc1)C1(C(=O)Nc2cccc(-c3c[nH]c4ncnc(N5CCOCC5)c34)c2)CC1 [Compound 2]

(A)
1. 6.63
2. 7.00

Data origin, for the record: paper PMC12136037
